src = the supplement of paper PMC8967900

# System: NALM-16;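 note: ALL cell lines in 384-well plates, five doses spanning 10,000-fold, each plate scaled between vehicle and 100 µmol/L benzalkonium chloride controls, sDSS an adapted area-under-curve metric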
# TEST NAME: selective drug sensitivity score (sDSS, relative to normal bone marrow) (sDSS (score)); higher = more potent and effective on the cell line relative to normal bone marrow cells
# CONDITION NOTES: 72 h
MEASUREMENT KIND: selective drug sensitivity score

>>> test_result("CC(=O)Nc1ccc(C(=O)Nc2ccccc2N)cc1 [Tacedinaline] (top concentration 1000 nM)")
-0.02
>>> test_result("OC[C@H]1O[C@@H](n2cnc3c2N=CNC[C@H]3O)C[C@@H]1O [Pentostatin] (top concentration 10000 nM)")
-0.44
>>> test_result("COc1nc(N)nc2c1ncn2[C@@H]1O[C@H](CO)[C@@H](O)[C@@H]1O [Nelarabine] (top concentration 10000 nM)")
-9.52
>>> test_result("Cc1c(-c2ccc(N3CCc4cccc(C(=O)Nc5nc6ccccc6s5)c4C3)nc2C(=O)O)cnn1CC12CC3CC(CC(C3)C1)C2 (top concentration 1000 nM)")
-2.26
>>> test_result("COc1cc2nccc(Oc3ccc(NC(=O)NC4CC4)c(Cl)c3)c2cc1C(N)=O [Lenvatinib] (top concentration 2500 nM)")
-0.24
>>> test_result("COc1cc(OC)cc(N(CCNC(C)C)c2ccc3ncc(-c4cnn(C)c4)nc3c2)c1 [Erdafitinib] (top concentration 1000 nM)")
-0.56
